condition label: in isobutanol, 288.15 K
recorded metric: solubility (mole fraction)
Answer using only a numeral; do not append any unit.

Exercise: Bench note: what solubility (mole fraction) did CC1(C)O[C@@H]2[C@@H](CO[C@@]3(COS(N)(=O)=O)OC(C)(C)O[C@@H]23)O1 show?
Key: 0.00525

* * *

condition label: in isopropanol, 283.15 K
recorded metric: solubility (mole fraction)
Quick one: just the number, no unit, thanks!

Exercise: For CC1(C)O[C@@H]2[C@@H](CO[C@@]3(COS(N)(=O)=O)OC(C)(C)O[C@@H]23)O1 , what is its reported solubility (mole fraction)?
Key: 0.00814

* * *

condition label: in isopentanol, 298.15 K
recorded metric: solubility (mole fraction)
The reply should be a number, written without any unit.

Exercise: Reported solubility (mole fraction) for CC1(C)O[C@@H]2[C@@H](CO[C@@]3(COS(N)(=O)=O)OC(C)(C)O[C@@H]23)O1 : what is it?
Key: 0.00905

* * *

condition label: in 2-ethoxyethanol, 303.15 K
recorded metric: solubility (mole fraction)

Exercise: Need solubility (mole fraction) of CC1(C)O[C@@H]2[C@@H](CO[C@@]3(COS(N)(=O)=O)OC(C)(C)O[C@@H]23)O1 , thanks.
Key: 0.162

* * *

condition label: in ethanol, 278.15 K
recorded metric: solubility (mole fraction)
Keep the answer to the number alone.

Exercise: What does the record list as solubility (mole fraction) for CC1(C)O[C@@H]2[C@@H](CO[C@@]3(COS(N)(=O)=O)OC(C)(C)O[C@@H]23)O1 ?
Key: 0.0169

* * *

condition label: in ethanol, 298.15 K
recorded metric: solubility (mole fraction)
Respond with the number and no other words.

Exercise: Entry CC1(C)O[C@@H]2[C@@H](CO[C@@]3(COS(N)(=O)=O)OC(C)(C)O[C@@H]23)O1 : reported solubility (mole fraction) = ?
Key: 0.039

* * *

condition label: in n-propanol, 303.15 K
recorded metric: solubility (mole fraction)
Reply with just the number.

Exercise: What does the record list as solubility (mole fraction) for CC1(C)O[C@@H]2[C@@H](CO[C@@]3(COS(N)(=O)=O)OC(C)(C)O[C@@H]23)O1 ?
Key: 0.0252

* * *

condition label: in n-heptanol, 283.15 K
recorded metric: solubility (mole fraction)
# print the numeric value only

Exercise: Need solubility (mole fraction) of CC1(C)O[C@@H]2[C@@H](CO[C@@]3(COS(N)(=O)=O)OC(C)(C)O[C@@H]23)O1 , thanks.
Key: 0.00327

* * *

condition label: in methanol, 293.15 K
recorded metric: solubility (mole fraction)
Write no unit; give the number alone.

Exercise: So what's the measured solubility (mole fraction) for this one? CC1(C)O[C@@H]2[C@@H](CO[C@@]3(COS(N)(=O)=O)OC(C)(C)O[C@@H]23)O1
Key: 0.0683

* * *

condition label: in n-pentanol, 293.15 K
recorded metric: solubility (mole fraction)
Please reply with the number alone, leaving off any unit.

Exercise: Which solubility (mole fraction) reading was recorded for the compound CC1(C)O[C@@H]2[C@@H](CO[C@@]3(COS(N)(=O)=O)OC(C)(C)O[C@@H]23)O1 ?
Key: 0.00747

* * *

condition label: in ethanol, 318.15 K
recorded metric: solubility (mole fraction)
Respond numerically, and do not add a unit to the figure.

Exercise: Reported solubility (mole fraction), molecule CC1(C)O[C@@H]2[C@@H](CO[C@@]3(COS(N)(=O)=O)OC(C)(C)O[C@@H]23)O1 : ____
Key: 0.102
